test system: HT29 vector control cells; assay: Sensitivity of HT29 vector control cells; assay type: cell-based, human
Readout kind: IC50 (µM)
Write the value in µM as a bare number.

Request: Entry COc1cc(O)c2c(c1)/C=C/C[C@H](O)[C@H](O)C(=O)/C=C\C[C@H](C)OC2=O : reported IC50 = ?
Result: 7.7

---

tested on: CaR-1 cells; assay: Cellular proliferation and viability, CRC cell line panel; type: cell-based, human; details: KRAS WT, BRAF WT, 3 days post-treatment
Readout kind: IC50 (µM)
Write the value in µM as a bare number.

Request: Entry COc1cc(O)c2c(c1)/C=C/C[C@H](O)[C@H](O)C(=O)/C=C\C[C@H](C)OC2=O : reported IC50 = ?
Result: 6.08

Where do these numbers come from? They come from patent US20140243403A1.
